# procedure_details: Toxicity liver stage against HepG2, at 10uM
# Type: cell-based
# Parameters: test concentration 10 uM, cell line HepG2-A16-CD81EGFP
# condition_parameters: human, HepG2-A16-CD81EGFP cells; read-out: INHIBITION
# key: entry, value: cytotoxicity at 10 µM
recorded_endpoint: cytotoxicity at 10 µM (%)

* CC(C)n1ncc2c1NC(=O)CC21C(=O)Nc2c(Cl)cc(Br)cc21 (stereo not drawn) | -5.15
* Cc1nc(NC2CCCCC2)cc(C2CCCNC2)n1 (stereo not drawn) | -30.3
* CN1CCS(=O)(=O)[C@@H]2CCN(C(=O)c3ccccc3)CC[C@@H]21 | -127
* COc1ccc(Cl)cc1NCC(=O)NCc1cccnc1OC | -10.3
* O=C(c1ccccn1)N1CCC2(CC1)C(=O)Nc1ccccc12 | -145
* CCC(CC)(CNC(=O)NC1CCCC1(C)C)S(C)(=O)=O (stereo not drawn) | 9.18
* O[C@H]1CC[C@@H](Cc2cc(-c3ccccn3)on2)O[C@@H]1CNCC1CC1 | -4.05
* O=c1[nH]c(NCCCO)nc2c1C1(CCCC1)Cc1ccccc1-2 | 8.79
* CS(=O)(=O)NC(=O)c1ccn(-c2cccc(Br)c2)n1 | -3.64
* O=C1N[C@@H]2CCN(C(=O)c3ccccc3)[C@@H]2C(=O)N1c1ccc(F)cc1 | 7.62
* Cc1cc(C(=O)N2CCCC(N3CCNC3=O)C2)nn1C(C)(C)C (stereo not drawn) | -1.44
* Cc1cc(C)n(C2CN(Cc3noc(C4CC4)n3)C2)n1 | 0.738
* CC(=O)N1CCCC1c1cc(N2CCN(CC(C)(C)C)CC2)cc(C)n1 (stereo not drawn) | -6.41
* COc1cccc(Cn2cc(N3C(=O)CCC3=O)cn2)c1 | -2.75
* COCCC1(CNC(=O)NCC2CCCN(C)C2)CCCC1 (stereo not drawn) | 0.131
* O=C(NCC(O)c1ccc(Cl)c(F)c1)NC1CC=CC1 (stereo not drawn) | -2.41
* CCOCCCC(=O)Nc1cc(C(N)=O)ccc1N1CCCCC1 | -48
* CC(=O)Nc1ccc(OCc2noc(C(=O)N3CCCC3)n2)cc1 | -12.3

* * *

Overview of recorded cytotoxicity at 10 µM for various compounds
# procedure_details: Toxicity liver stage against HepG2, at 10uM
# Type: cell-based
# Design: test concentration 10 uM, cell line HepG2-A16-CD81EGFP
# condition_parameters: human, HepG2-A16-CD81EGFP cells; read-out: INHIBITION
recorded_endpoint: cytotoxicity at 10 µM (%)

- Cc1c(NC(=O)NCC(C)N2CCOCC2)cccc1OC(F)F (stereo unspecified): -2.88
- O=C1CC2(CCN(C(=O)c3ccccn3)CC2)Oc2c(Cl)cc(Cl)cc21: 1.73
- Cc1cc(C)c(C#N)c(NCCSc2nncn2C)n1: -1.01
- Cc1ccccc1C(=O)Nc1cnn(CCN2CCOCC2)c1: -11.7
- COc1ccc(OC2CCN(C(=O)c3cnc(C)s3)CC2)cc1: -18
- CC(CNC(=O)Nc1ccc(C#N)cc1)N1CCc2ccccc21 (stereo unspecified): -5.71

* * *

# procedure_details: Toxicity liver stage against HepG2, at 10uM
# Assay type: cell-based
# Set-up: test concentration 10 uM, cell line HepG2-A16-CD81EGFP
# condition_parameters: human, HepG2-A16-CD81EGFP cells; read-out: INHIBITION
# cytotoxicity at 10 µM listing for each entry below
recorded_endpoint: cytotoxicity at 10 µM (%)

* O=C(NCc1ccccc1OCCO)Nc1ccc2c(c1)CCC2 | 9.46
* COCc1nc2n(n1)CCCC2Nc1nc(C)ns1 (stereo not given) | -3.32
* COc1cccc(C(C)N2CCN(S(=O)(=O)c3ccccc3)CC2)c1 (stereo not given) | 5.11
* Cc1cc(NC(=O)N(C)CCN2CCN(c3ccccc3)CC2)on1 | 4.79
* c1cnn(CC2CN(c3ncnc4c3CCC4)CCO2)c1 (stereo not given) | 31.2
* O=C(CSCC1CC1)N1C[C@H]2CC[C@@H](C1)N(Cc1ccccn1)C2=O | 5
* O=C(CN1CCOc2ccc(Cl)cc21)NCCCn1ccnc1 | -7.49
* COCC(=O)N[C@H]1C[C@@H](Cc2cc(CN3CCCCC3)on2)C1(C)C | -8.12
* CC(C)(C)n1ncc2c(=O)n(CC(=O)NCc3ccccc3Cl)cnc21 | -9.03
* Cc1ccc(N(C)C2CCN(C(=O)c3n[nH]c4c3CCC4)CC2)nn1 | 8
* Clc1ccccc1OCCc1cc(C2CCNC2)n[nH]1 (stereo not given) | -32.9
* CCOCc1nn(C)c2c1CN(CCO)CC2 | -103
* Cc1cc(CN2CCCN(c3ccc(C#N)cc3)CC2)no1 | 2.07
* Cc1cc(-c2cnc(C(C)C)nc2CN(C)C(=O)c2ccccn2)on1 | 2.47
* CN(CCc1ccncc1)C1CCCN(Cc2noc(C3CC3)n2)C1 (stereo not given) | 8.66
* COc1c(C)cnc(CN2CCCC2c2noc(C)n2)c1C (stereo not given) | -3.75
* Clc1ccccc1Cc1noc(CN2CCCC(CN3CCCC3)C2)n1 (stereo not given) | -3.15
* COc1cccc(Cn2c(=O)n(C)c(=O)c3sccc32)c1 | 3.29
* NC(=O)c1cc(C2CCCN(CCc3ccccn3)C2)n[nH]1 (stereo not given) | -8.44
* COc1ccc(C(CNS(=O)(=O)c2cn(C)nc2C)N2CCCC2)cc1 (stereo not given) | 4.11
* CCOc1ccnc(N2CCN(C(=O)CCc3cnn(C)c3)CC2)n1 | 7.58
* CCN(Cc1cn(C)nc1-c1ccc2c(c1)OCCO2)CC1CCCO1 (stereo not given) | 2.85
* COc1ccc(CN2C[C@H]3CN(Cc4ccncc4)C(=O)[C@H]3C2)cc1 | 4.35
* c1cc(N2CCSCC2)ccc1CNc1cncc2nnnn12 | 5.51
* COCc1nc(CN(CC(N)=O)C(C)C)cs1 | -8.39
* CC(C)c1nn(C)c(N2CCOCC2)c1CNC(C)c1ccco1 (stereo not given) | -5.93
* COc1ccc(CCNC(=O)NCc2cccc(C(N)=O)c2)cc1OC | 11.8
* Cc1ccc2c(c1)N(C(=O)c1cc[nH]c(=O)c1)CC(C)O2 (stereo not given) | 2.71
* COC(=O)c1ccc(S(=O)(=O)N2CCCn3ncnc32)s1 | 19.8
* COCC1CN(Cc2ccsc2)Cc2nn(C)cc21 (stereo not given) | 5.15
* Cn1ccnc1CN1CCCN(C(=O)c2ccc3[nH]nnc3c2)CC1 | -8.53
* O=C(O)C1CCCCN1C(=O)c1cccc(C(F)(F)F)c1 (stereo not given) | -5.95
* CCS(=O)(=O)N1CCCCC1c1nc(CC(C)C)no1 (stereo not given) | 0.253
* Cn1ncc2cnn(CC(O)COc3cccc4[nH]ccc34)c2c1=O (stereo not given) | 13.2
* Cc1nc(C)n(CC2CCCCN2CC(=O)Nc2c(C)n[nH]c2C)n1 (stereo not given) | -12.7

* * *

# procedure_details: Toxicity liver stage against HepG2, at 10uM
# Format: cell-based
# Design: test concentration 10 uM, cell line HepG2-A16-CD81EGFP
# condition_parameters: human, HepG2-A16-CD81EGFP cells; read-out: INHIBITION
recorded_endpoint: cytotoxicity at 10 µM (%)

- O=C(Nc1cccc(CNCc2cccnc2)c1)C1CCCC1: -9.27
- Cc1cccc(CN2CC[C@H]3[C@H]2CCN3C(=O)c2cnn(C)c2)n1: 14.4
- Cc1[nH]nc(CCC(=O)N2C[C@@H]3CC[C@H]2CN(C(=O)N(C)C)C3)c1C: 3.8
- CCN(CC)C1COc2c(cc(Br)c(C)c2C)C1=O (configuration not stated): 0.331
- COCCN1CC[C@]2(CN(Cc3ccccn3)C[C@H]2C)C1=O: 8.86
- CC(NCc1ccc(C(N)=O)cc1)c1ccc(Cl)c(Cl)c1 (configuration not stated): 8.8
- Cc1ccc(-c2nc(C(=O)NCC3CCOC3)cs2)cc1 (configuration not stated): -8.32
- COCCC(=O)N1Cc2ccccc2OC2(CCOCC2)C1: -2.53
- CC(C)C(=O)N1CCCc2c(cnn2-c2ccccc2)C1: 11
- O=C(NCc1cc(-c2ccccc2)no1)NC1CCCCNC1=O (configuration not stated): -145
- Cc1nc2n(n1)CC(NCC(=O)N(C)Cc1cccs1)CC2 (configuration not stated): -0.189
- CC(C)(C)OC(=O)N1CCCc2ccc(NCc3cc[nH]c3)cc21: 34.1
- N#CCCN1CC(O)CN(C(=O)c2cccc(C(F)(F)F)c2)CC1=O (configuration not stated): 7.84
- CS(=O)(=O)NCc1nnc2n1CCN(Cc1nccs1)C2: -75.7
- Cn1cc(C2SCC(=O)Nc3c2cnn3C(C)(C)C)cn1 (configuration not stated): -6.24
- CCCc1nn(Cc2ccc(Br)s2)c(=O)o1: 3.81
- Cc1occc1C(=O)NCC(=O)NCCOc1cccc(Cl)c1: 0.0264
- c1cc(-c2nnc([C@H]3CCN(C4CCCCC4)C3)o2)ccn1: -102
- CC(NC(=O)NCCCn1cncn1)c1ccncc1 (configuration not stated): -15.9
- COCC(=O)N1C[C@@H](c2cccc(OC)c2)[C@@]2(CCCCC(=O)N2)C1: 1.62
- Cc1ccc(C(=O)N2C[C@@H]3COC[C@]3(COCc3cccnc3)C2)cn1: 0.719
- O=C(C1CCOCC1)N1CCO[C@H]2[C@H](Oc3ccccn3)CC[C@@H]21: -99.6
- CNC(=O)CNC(=O)Nc1ccc(F)c(Br)c1: 7.92
- O=C(O)CNc1cc(-c2cc(C(=O)NC3CC3)ccn2)c2cc[nH]c2n1: -5.2
- CC(C)CN1CC(C(=O)N(C)CCc2cn[nH]c2)CC1=O (configuration not stated): -4.1
- Cc1ccc(NC(C)(C)c2nnnn2-c2ccc(Cl)cc2)c(C)c1: 55.4
- CCOc1c(F)cccc1C(=O)N(CC)C(C)c1cccnc1 (configuration not stated): 11.8
- O=C1NCC2(CCCN(C(=O)CCn3cnc4ccccc43)CC2)O1 (configuration not stated): -4.8
- CCC(CNC1CCN(C(C)=O)CC1)Oc1cccc(C)c1 (configuration not stated): 6.42
- Cn1nc2c(cc1=O)CN(Cc1nnc(C3CC3)o1)CC2: 4.28
- Cc1nn(C)c2c(=O)n(C(C)C)c(NCCc3ccccc3)nc12: 65.3
- O=C(c1ccsc1)N1C[C@H]2CN(Cc3cccnc3)C(=O)[C@H]2C1: -5.15
